Molecular target: T1, TNF-alpha (human, UniProt P01375 77-233)
T1 construct: also called TNFα; TNF-α
T1 sequence (P01375 77-233 limits assumed): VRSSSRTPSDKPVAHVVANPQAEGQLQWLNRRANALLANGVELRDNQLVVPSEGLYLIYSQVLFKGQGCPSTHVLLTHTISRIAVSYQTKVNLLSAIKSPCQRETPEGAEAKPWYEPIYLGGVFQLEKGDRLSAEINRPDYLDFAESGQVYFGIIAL
Assay: phage ELISA
Value kind: binding result

INSERT INTO results (binder, meas_value) VALUES
  ('I006D07 (scFv) scFv: EVQLVESGGGVVQPGGSLRLSCAASGFTVNSYAMHWVRQAPGKGLQWVAVIPYDGSKKYYADSVKGRFTVSRDNSKNTLYLQMNSLRAEDTAVYYCARSHYDILTGLNYWYFDLWGRGTLVTVSSGGGGSGGGGSGGGGSSELTQDPAVSVALGQTVRITCQGDSLRSYYASWYQQKPGQAPVLVIYGKNNRPSGIPDRFSGSSSGNTASLTITGAQAEDEADYYCNSRGSSGNHVVFGGGTKLTVLG', 'no binding'),
  ('I016F04 (scFv) scFv: QVQLQQSGSELKKPGASVKVSCKVSGYSLTKMSMHWVRQSPGEGLEWVGGIDPETRQPVYAQKFQGRVTITKDTSASAAYMELSSLGSEDTALYYCARATYDPLTGYSFDGFDIWGQGTLVTVSSGGGGSGGGGSGGGGSQSVLTQPASVSGSPGQSITISCTGTSSDVGGYNYVSWYQQHPGKAPKLMIYEGSKRPSGVSNRFSGSKSGNTASLTISGLQAEDEADYYCSSYTTRSTRVFGGGTKLTVLG', 'no binding');
